Sourced from patent US5436229A

# TARGET_ENTITY: human thrombin (Homo sapiens)
# TEST_PROTOCOL: Thrombin amidase inhibition (Kass), chromogenic substrate
# Type: biochemical
QUANTITY: Kass Human Thrombin (L/mol × 10^6)
Entry rule: numbers only, all in L/mol × 10^6.

Request: Output Kass Human Thrombin of CNC(CC(=O)N1CCC[C@H]1C(=O)N[C@H](C=O)CCCNC(=N)N)c1ccccc1.Cl.Cl.O.O (stereo partly drawn)
Response: 70

Request: Report Kass Human Thrombin for `CCCN(CCC)S(=O)(=O)c1ccc(C(=O)N[C@H](Cc2ccccc2)C(=O)N2CCC[C@H]2C(=O)N[C@H](C=O)CCCNC(=N)N)cc1.Cl`
Response: 43

Request: Read off the recorded Kass Human Thrombin for `Cl.Cn1c(C(=O)N[C@@](C)(C(=O)N2CC[C@H]2C(=O)N[C@H](C=O)CCCNC(=N)N)c2ccccc2)cc2ccccc21`
Response: 79
